Ref: patent US20110178396A1

# Tested on: B16F0 melanoma tumour
# Measurement protocol: Biodistribution in B16 melanoma bearing mice
# Type: in vivo, C57BL/6J mice
# Details: B16 tumour, C57BL/6J mice, 6 h, mean ± SD, n = 5
Readout label: uptake LIVER (% ID/g)

So what's the measured uptake LIVER for this one? CCN(CC)CCNC(=O)c1ccc(I)nc1 [[^123I]14] 1.4

(P) CCN(CC)CCNC(=O)c1cncc(I)c1 [[^123I]11]
(Q) CCCN(CCC)CCCCNC(=O)c1cncc(I)c1 [[^123I]17]
(R) O=C(c1cncc(I)c1)N1CCN(Cc2ccccc2)CC1 [[^123I]20]
Ascending sort, uptake LIVER. Sort the labels as requested; that list is your answer. P, Q, R
(P: 0.6 % ID/g, Q: 1.1 % ID/g, R: 2.2 % ID/g)

###

# System: B16F0 melanoma tumour
# Measurement protocol: Biodistribution in B16 melanoma bearing mice
# Type: in vivo, C57BL/6J mice
# Details: B16 tumour, C57BL/6J mice, 6 h, mean ± SD, n = 5
# Description: Animal experiments were performed in compliance with the NHMRC Australian Code of Practice for the care and use of animals for scientific purposes. […] Eleven days (B16F0 melanoma) and 25 days (A375 human melanoma) after tumour transplantation, the [^18F]nicotinamides (0.5-1.5 MBq, 100 μl) and [^123I]nicotinamide (0.37-0.74 MBq, 100 μl) derivatives were injected intravenously via the tail vein into mice (15-18 g). […] Selected organs were weighed and their radioactivity measured with a γ-counter. […]
Readout label: uptake BLOOD (% ID/g)

So what's the measured uptake BLOOD for this one? CCN(CC)CCNC(=O)c1cncc(I)c1 [[^123I]11] 0.58

(a) O=C(c1cncc(I)c1)N1CCN(Cc2ccccc2)CC1 [[^123I]20]
(b) CCCN(CCC)CCCCNC(=O)c1cncc(I)c1 [[^123I]17]
(c) CCN(CC)CCNC(=O)c1ccc(I)nc1 [[^123I]14]
Ascending sort, uptake BLOOD. Sort the labels as requested; that list is your answer. a, b, c

###

# System: B16F0 melanoma tumour
# Measurement protocol: Biodistribution in B16 melanoma bearing mice
# Format: in vivo, C57BL/6J mice
# Details: B16 tumour, C57BL/6J mice, 6 h, mean ± SD, n = 5
Readout label: uptake BRAIN (% ID/g)

Use these answered entries as a reference point.
So what's the measured uptake BRAIN for this one? CCN(CC)CCNC(=O)c1cncc(I)c1 [[^123I]11] 0.04

So what's the measured uptake BRAIN for this one? CCCN(CCC)CCCCNC(=O)c1cncc(I)c1 [[^123I]17] 0.16

(P) CCN(CC)CCNC(=O)c1ccc(I)nc1 [[^123I]14]
(Q) O=C(c1cncc(I)c1)N1CCN(Cc2ccccc2)CC1 [[^123I]20]
Field: lower uptake BRAIN | Options: P / Q # answer = label of selected item Q
(Q: 0.05 % ID/g, P: 0.14 % ID/g)

###

# Test system: B16F0 melanoma tumour
# Measurement protocol: Biodistribution in B16 melanoma bearing mice
# Format: in vivo, C57BL/6J mice
# Details: B16 melanoma bearing mice, 1 h
Readout label: uptake THYROID (% ID/g)

Hello, I am looking for reported uptake THYROID with B16F0 melanoma tumour for CCN(CC)CCNC(=O)c1ccc(F)nc1 [[^18F]MEL2] . Could you help? 3.327

(1) CCN(CC)CCNC(=O)c1cccnc1F [[^18F]MEL6]
(2) CCCCN(C)CCCCNC(=O)c1ccc(F)nc1 [[^18F]MEL4]
Of 1 and 2 , whose reported uptake THYROID is the larger number? # answer = label of selected item 2
